- Tested on: SJRH30 (Rhabdomyosarcoma);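 note: after 72 h of two-drug dosing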
- assay_comment: Bliss excess, mean over the matrix (fraction); higher = more synergy

compound: C[C@@H]1COCCN1c1cc(C2([S@](C)(=N)=O)CC2)nc(-c2ccnc3[nH]ccc23)n1 [AZD6738] + O=C(c1cc(Cc2n[nH]c(=O)c3ccccc23)ccc1F)N1CCN(C(=O)C2CC2)CC1 [Olaparib] (first compound max 10 µM, 7x7, partner max 10 µM)
Bliss excess: -0.0205

----------
- Tested on: NCI-H1755 (Lung Adenocarcinoma)
- assay_comment: combination Emax (second highest fraction inhibited in the dose matrix, 72 h); higher = more inhibition; extreme values may be limits of the assay

compound: C[C@@H](c1ccc2nccn2c1)n1nnc2ncc(-c3cnn(C)c3)nc21 [Savolitinib] + CC1(C)CCC(CN2CCN(c3ccc(C(=O)NS(=O)(=O)c4ccc(NCC5CCOCC5)c([N+](=O)[O-])c4)c(Oc4cnc5[nH]ccc5c4)c3)CC2)=C(c2ccc(Cl)cc2)C1 [Venetoclax] (first compound max 1 µM, 7x7, partner max 1 µM)
assayed_target: NCI-H1755 (Lung Adenocarcinoma)
combination Emax: 0.101

compound: CS(=O)(=O)CCNCc1ccc(-c2ccc3ncnc(Nc4ccc(OCc5cccc(F)c5)c(Cl)c4)c3c2)o1 [Lapatinib] + Cn1cnc2c(F)c(Nc3ccc(Br)cc3Cl)c(C(=O)NOCCO)cc21 [Selumetinib] (first compound max 10 µM, 7x7, partner max 10 µM)
assayed_target: NCI-H1755 (Lung Adenocarcinoma)
combination Emax: 0.539
